# Tested system: human TLR9 (Homo sapiens)
# Sequence (Q9NR96 26-1032): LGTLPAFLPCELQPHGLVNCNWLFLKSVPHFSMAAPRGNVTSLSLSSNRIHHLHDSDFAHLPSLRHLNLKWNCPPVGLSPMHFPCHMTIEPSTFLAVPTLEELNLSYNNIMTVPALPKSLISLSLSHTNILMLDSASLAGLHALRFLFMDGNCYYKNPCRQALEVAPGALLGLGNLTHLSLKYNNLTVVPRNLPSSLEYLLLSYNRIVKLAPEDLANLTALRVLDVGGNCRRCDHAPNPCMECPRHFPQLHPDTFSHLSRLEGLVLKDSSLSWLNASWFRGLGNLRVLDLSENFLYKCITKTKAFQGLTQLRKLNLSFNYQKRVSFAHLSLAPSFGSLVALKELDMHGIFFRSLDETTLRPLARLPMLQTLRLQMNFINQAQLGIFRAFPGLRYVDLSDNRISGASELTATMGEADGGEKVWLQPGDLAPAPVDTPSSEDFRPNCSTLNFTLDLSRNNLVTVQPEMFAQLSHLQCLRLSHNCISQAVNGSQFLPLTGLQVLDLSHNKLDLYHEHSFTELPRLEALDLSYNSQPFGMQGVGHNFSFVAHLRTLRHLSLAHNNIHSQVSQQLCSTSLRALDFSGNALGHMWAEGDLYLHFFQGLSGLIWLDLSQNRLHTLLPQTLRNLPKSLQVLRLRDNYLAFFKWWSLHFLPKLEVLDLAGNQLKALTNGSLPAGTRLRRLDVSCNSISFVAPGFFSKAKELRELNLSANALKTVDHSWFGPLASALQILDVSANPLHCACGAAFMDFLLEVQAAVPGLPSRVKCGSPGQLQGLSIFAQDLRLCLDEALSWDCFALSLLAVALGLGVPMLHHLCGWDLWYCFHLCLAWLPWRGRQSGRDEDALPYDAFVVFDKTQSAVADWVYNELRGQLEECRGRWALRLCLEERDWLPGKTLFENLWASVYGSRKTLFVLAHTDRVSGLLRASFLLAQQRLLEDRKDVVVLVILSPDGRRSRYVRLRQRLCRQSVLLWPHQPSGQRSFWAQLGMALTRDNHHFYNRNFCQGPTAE
# Assay protocol: TLR9 inhibition reporter assay (HEK-Blue cells, SEAP reporter, ODN2006 stimulation)
# Experimental parameters: HEK-Blue cells overexpressing human TLR9, SEAP reporter, ODN2006 5 nM
Measured endpoint: IC50

# return recorded IC50 for input CC(C)c1c(-c2ccc3cnnn3c2)[nH]c2ccc(C3CCNCC3)cc12 [Example 79]
100 to 1000 nM

# return recorded IC50 for input CC(C)c1c(-c2ccn3nccc3c2)[nH]c2ccc(C3CCN(CC(=O)N(C)C)CC3)cc12 [Example 441]
1000 to 50000 nM

# return recorded IC50 for input CNC(=O)CN1CCC(c2ccc3[nH]c(-c4cn5cc(C)nc5cc4C)c(C(C)C)c3c2)CC1 [Example 374]
100 to 1000 nM

# return recorded IC50 for input CNC(=O)CN1CCC(c2ccc3[nH]c(-c4ccc(C)n5nc(C)nc45)c(C(C)C)c3c2)CC1 [Example 383]
1000 to 50000 nM

# return recorded IC50 for input CC(C)c1c(-c2ccnc3[nH]ncc23)[nH]c2ccc(C3CCN(C(=O)C4CCCNC4)CC3)cc12 (stereo not shown) [Example 636]
100 to 1000 nM

# return recorded IC50 for input CC(=O)N1CCCN(CC(=O)N2CCC(c3ccc4[nH]c(-c5ccnc6[nH]ncc56)c(C(C)C)c4c3)CC2)CC1 [Example 586]
1000 to 50000 nM

# return recorded IC50 for input Cc1nnn2ccc(-c3[nH]c4ccc(C5CCN(C6COC6)CC5)cc4c3C(C)C)cc12 [Example 743]
1000 to 50000 nM

# return recorded IC50 for input CC(=O)N1CCN(CC(=O)N2CCC(c3ccc4[nH]c(-c5ccnc6[nH]ncc56)c(C(C)C)c4c3)CC2)CC1 [Example 574]
> 50000 nM

# return recorded IC50 for input Cc1c(-c2ccnc3cn[nH]c23)[nH]c2ccc(C3CCNCC3)cc12 [Example 55]
1000 to 50000 nM

# return recorded IC50 for input CCc1c(-c2cc3cn(C)nc3cn2)[nH]c2ccc(C3CCNCC3)cc12 [Example 98]
1000 to 50000 nM

# return recorded IC50 for input COc1ncc(CN2CCC(c3ccc4[nH]c(-c5ccnc6[nH]ncc56)c(C(C)C)c4c3)CC2)cn1 [Example 909]
1000 to 50000 nM

# return recorded IC50 for input CC(C)c1c(-c2cc(CO)c3nnnn3c2)[nH]c2ccc(C3CCN(CC4(C)COC4)CC3)cc12 [Example 781]
1000 to 50000 nM

# return recorded IC50 for input Cc1cc(-c2[nH]c3ccc(C4CCN(CC(C)(C)O)CC4)cc3c2C(C)C)c2ccccc2n1 [Example 752]
1000 to 50000 nM

# return recorded IC50 for input CC(C)c1c(-c2ccc3ncnn3n2)[nH]c2ccc(C3CCN(CC(C)(C)O)CC3)cc12 [Example 746]
1000 to 50000 nM

# return recorded IC50 for input Cc1ccnc2[nH]cc(-c3[nH]c4ccc(C5CCN(C(=O)CN(C)C)CC5)cc4c3C(C)C)c12 [Example 458]
1000 to 50000 nM

# return recorded IC50 for input CC(C)c1c(-c2ccnc3[nH]ncc23)[nH]c2ccc(C3CCN(C(=O)CN4CCC(CO)CC4)CC3)cc12 [Example 576]
1000 to 50000 nM

# return recorded IC50 for input Cc1nnn2ccc(-c3[nH]c4ccc(C5CCN(C(=O)CN(C)C)CC5)cc4c3C(C)C)cc12 [Example 487]
1000 to 50000 nM

# return recorded IC50 for input CNC(=O)CN1CCC(c2ccc3[nH]c(-c4ccc(C#N)c5ncccc45)c(C(C)C)c3c2)CC1 [Example 371]
1000 to 50000 nM

# return recorded IC50 for input CC(C)c1c(-c2ccc3nccn3c2)[nH]c2ccc(C3CCNCC3)c(F)c12 [Example 258]
100 to 1000 nM

# return recorded IC50 for input CCN(C)CCC(=O)N1CCC(c2ccc3[nH]c(-c4cc(C)c5nnnn5c4)c(C(C)C)c3c2)CC1 [Example 625]
1000 to 50000 nM

# return recorded IC50 for input Cc1cc2nnnn2cc1-c1[nH]c2ccc(C3CCN(C4CCOCC4)CC3)cc2c1C(C)C [Example 699]
1000 to 50000 nM

# return recorded IC50 for input CC(C)c1c(-c2ccnc3[nH]ncc23)[nH]c2cc(F)c(C3CCN(CC4CCN(C(C)C)C4)CC3)cc12 (stereo not shown) [Example 852]
100 to 1000 nM

# return recorded IC50 for input CNCCN1CCC(c2ccc3[nH]c(-c4cncc5ccccc45)c(C)c3c2)CC1 [Example 663]
100 to 1000 nM

# return recorded IC50 for input CCc1c(-c2ccc3ncc(C)n3n2)[nH]c2ccc(C3CCNCC3)cc12 [Example 103]
1000 to 50000 nM

# return recorded IC50 for input CC(C)c1c(-c2ccc3ncnn3n2)[nH]c2ccc(C3CCN(C4CCOCC4)CC3)cc12 [Example 683]
1000 to 50000 nM

# return recorded IC50 for input Cc1nc2cc(-c3[nH]c4ccc(C5CCNCC5)cc4c3C(C)C)cc(C)c2o1 [Example 92]
1000 to 50000 nM

# return recorded IC50 for input CC(C)c1c(-c2ccc3ncnn3n2)[nH]c2ccc(C3CCN(C(=O)CN(C)C)CC3)cc12 [Example 452]
1000 to 50000 nM

# return recorded IC50 for input CC(C)c1c(-c2ccnc3c2NC(=O)CO3)[nH]c2ccc(C3CCNCC3)cc12 [Example 68]
1000 to 50000 nM

# return recorded IC50 for input Cc1c(-c2ncnc3[nH]ccc23)[nH]c2ccc(C3CCN(C4CCN(C(C)C)CC4)CC3)cc12 [Example 814]
< 100 nM

# return recorded IC50 for input COc1cc(-c2[nH]c3ccc(C4CCN(CC(=O)N(C)C)CC4)cc3c2C(C)C)cc2nc(C)cn12 [Example 334]
100 to 1000 nM

# return recorded IC50 for input CC(C)c1c(-c2cn3cnnc3c(=O)n2C)[nH]c2ccc(C3CCNCC3)cc12 [Example 237]
1000 to 50000 nM
